These data points were gathered from patent US20250011438A1.

Target: T1, human Tie2 (hTie2), as immobilised in the Octet assay of Example 1.4 (human, UniProt Q02763 349-738, limits assumed)
T1 construct: The protein used was probably a soluble recombinant form, possibly hTie2-Ig3-FNIII(1-3)
T1 sequence (Q02763 349-738 limits assumed): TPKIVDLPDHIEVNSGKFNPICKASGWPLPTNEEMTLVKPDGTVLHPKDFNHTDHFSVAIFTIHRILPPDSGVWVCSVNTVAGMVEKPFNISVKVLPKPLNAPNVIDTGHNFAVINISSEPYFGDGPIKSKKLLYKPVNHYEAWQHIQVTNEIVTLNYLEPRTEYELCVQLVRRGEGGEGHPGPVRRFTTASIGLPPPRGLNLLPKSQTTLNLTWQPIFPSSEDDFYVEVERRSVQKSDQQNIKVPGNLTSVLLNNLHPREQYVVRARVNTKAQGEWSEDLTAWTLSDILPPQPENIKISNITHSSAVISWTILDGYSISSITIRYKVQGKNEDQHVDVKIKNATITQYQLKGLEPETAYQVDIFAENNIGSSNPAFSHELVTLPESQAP
Test: BLI (Octet), hTie2 immobilised on AR2G sensor, antibody as analyte, 1:1 global fit
// reported koff for each item listed
Enter your answer as a number in s⁻¹; do not include the unit.

Worked examples, 3 binders total:
binder	koff [s⁻¹]
mouse anti-Tie2 antibody 4A4 (antibody, V domains shown) VH: QVQLQQPGAELVRPGASVKLSCKASGYSFTSYWMNWVKQRPGQGLEWIGMIHPSDSETRLNQKFKDKATLTVDKSSSTAYMQLSSPTSEDSAVYYCARGYYFDYWGQGTTLTVSS VL: DIQMTQSPSSLSASLGERVSLTCRASQDIGISLNWLQQEPDGTIKRLIYATSSLDSGVPKRFTGSRSGSDYSLTISSLESEDFVDYYCLQYVSSPWTFGGGTKLEIK	5.53e-05
mouse anti-Tie2 antibody 11C4 (antibody, V domains shown) VH: QVQLQQPGADLVRPGASVTLSCKASGYSFTSYWMNWVKQRPGQGLEWIGMIHPSDSETRLNQKFKDKATLTVDKSSSTAYMQLRSPTSEDSAVYYCAGLTIYFDYWGQGTTLTVSS VL: DIQMTQSPSSLSASLGERVSLTCRASQDIGISLNWLQQEPDGTIKRLIYATSSLDSGVPKRFSGSRSGSDYSLTISSLESEDFVDYYCLQYASSPYTFGGGTKLEIK	0.000327
mouse anti-Tie2 antibody 3H7 (antibody, V domains shown) VH: QVQLQQPGAELVRPGASVKLSCKASGYSFTSYWMNWVKQRPGQGLEWIGMIHPSDSETRLNQKFMDKATLTVDKSSSTAYMQLSSPTSEDSAVYYCARGLYGNSWGQGTLVTVSA VL: DIQMTQSPSSLSASLGERVSLTCRASQDIGISLNWLQQEPDGTIKRLIYATSSLDSGVPKRFSGSRSGSDYSLTISSLESEDFVDYYCLQYASSPYTFGGGTKLEIK	2.13e-05

**Q:** Consider the binder mouse anti-Tie2 antibody 3E12 (antibody, V domains shown) VH: QVQLQQPGADLVRPGASVKLSCKASGYSFTSYWMNWVKQRPGQGLEWIGMIHPSDSETRLNQKFKDKATLTVDKSSSTAYMQLSSPTSEDSAVYYCAKGYYFGYWGQGTTLTVSS VL: DIQMTQSPSSLSASLGERVSLTCRASQDIGISLNWLQQEPDGTIKRLIYATSNLDSGVPKRFSGSRSGSDYSLTISSLESEDFVDYYCLQYASSPPTFGGGTKLEIK and give its recorded koff.
**A:** 9.12e-05
